Reported calcium oscillation score by item:
# experimental system: Tau
# experiment: rat primary cortical neurons, FLIPR, 25 uM ASO
Bases are written 5' to 3'; sugars and linkages follow in the same order, as letters with counts (s phosphorothioate, o phosphodiester; PS: all linkages phosphorothioate). The collection does not say whether C is 5-methylated. l = locked nucleic acid (LNA); d = 2'-deoxy (DNA)

Observe how each entry below is paired with its result.
**Query** Give calcium oscillation score for the following sequence: TAATCACTCATGCCTT (sugars l4 d8 l4, PS)
**Result** 65.6 % of control

**Query** Give calcium oscillation score for the following sequence: CACCATCCAAGTCAATGCCT (sugars l3 d14 l3, PS)
**Result** 24.2 % of control

---
**Query** Give calcium oscillation score for the following sequence: CCTTTGAAAGTCCTTT (sugars l4 d9 l3, PS)
**Result** 96.4 % of control

**Query** Give calcium oscillation score for the following sequence: TAATCCTGTGCTTCA (sugars l3 d9 l3, PS)
**Result** 86.7 % of control

**Query** Give calcium oscillation score for the following sequence: TAATTCATAAATGACTATAC (sugars l3 d14 l3, PS)
**Result** 72.5 % of control

**Query** Give calcium oscillation score for the following sequence: GCCTCATAAACCTAAT (sugars l3 d9 l4, PS)
**Result** 68.2 % of control

**Query** Give calcium oscillation score for the following sequence: CCACTCCATGTCAATCA (sugars l4 d11 l2, PS)
**Result** 63.5 % of control

**Query** Give calcium oscillation score for the following sequence: TCCCCCAAAATATCTCA (sugars l2 d12 l3, PS)
**Result** 87.1 % of control

====

# experimental system: Tau
# experiment: rat primary cortical neurons, FLIPR, 25 uM ASO
Bases are written 5' to 3'; sugars and linkages follow in the same order, as letters with counts (s phosphorothioate, o phosphodiester; PS: all linkages phosphorothioate). The collection does not say whether C is 5-methylated. l = locked nucleic acid (LNA); d = 2'-deoxy (DNA)
Reported calcium oscillation score by item:

**Query** Provide calcium oscillation score, recorded with Tau, of AAAAAGTCCATTCCCTC (sugars l3 d10 l4, PS)
**Result** 64 % of control

**Query** Provide calcium oscillation score, recorded with Tau, of TAGACTATTTGCACACTGCC (sugars l3 d14 l3, PS)
**Result** 51.9 % of control

**Query** Provide calcium oscillation score, recorded with Tau, of TTCCACTACAAGCTCCA (sugars l3 d12 l2, PS)
**Result** 53.9 % of control

**Query** Provide calcium oscillation score, recorded with Tau, of CCCTAAGCTCTCACTA (sugars l2 d12 l2, PS)
**Result** 69.1 % of control

**Query** Provide calcium oscillation score, recorded with Tau, of AACCACTCTTATTCTTTAA (sugars l4 d11 l4, PS)
**Result** 77.1 % of control

Here is another sequence to look at.
**Query** Provide calcium oscillation score, recorded with Tau, of CGATGCTGCCGGTGGA (sugars l3 d10 l3, PS)
**Result** 2.61 % of control

====

# experimental system: Tau
# experiment: rat primary cortical neurons, FLIPR, 25 uM ASO
Bases are written 5' to 3'; sugars and linkages follow in the same order, as letters with counts (s phosphorothioate, o phosphodiester; PS: all linkages phosphorothioate). The collection does not say whether C is 5-methylated. l = locked nucleic acid (LNA); d = 2'-deoxy (DNA)
Reported calcium oscillation score by item:

Observe how each entry below is paired with its result.
**Query** Give calcium oscillation score for the following sequence: AGAAATAAGTGGTAGT (sugars l2 d11 l3, PS)
**Result** 102 % of control

**Query** Give calcium oscillation score for the following sequence: TCATAGTCACTCTGGT (sugars l3 d10 l3, PS)
**Result** 85.7 % of control

**Query** Give calcium oscillation score for the following sequence: CATCACTTCGAACTCC (sugars l3 d10 l3, PS)
**Result** ≥ 200 % of control

**Query** Give calcium oscillation score for the following sequence: TTATTTCCAAATTCACTTTT (sugars lldllddddddddddldlll, PS)
**Result** 81 % of control

**Query** Give calcium oscillation score for the following sequence: ACATTCTATACTTCAG (sugars l4 d8 l4, PS)
**Result** 71.4 % of control

Here is another sequence to look at.
**Query** Give calcium oscillation score for the following sequence: AATAAGAAAGGAACGC (sugars l3 d9 l4, PS)
**Result** 85.7 % of control
